Assay: Solubility of lithium clavulanate in aqueous lithium chloride
Format: physicochemical
Conditions: 5.0 M aqueous LiCl, about 20° C.; read-out: Solubility in mz/ml of lithium clavulanate (approximate)
value type: solubility
Give the figure together with its unit, number first.

# query: solubility of entry O=C(O)[C@H]1/C(=C/CO)O[C@@H]2CC(=O)N21 [lithium clavulanate]
4100 µg/mL

---

Test: Solubility of lithium clavulanate in aqueous lithium chloride
Format: physicochemical
Conditions: 6.25 M aqueous LiCl, about 20° C.; read-out: Solubility in mz/ml of lithium clavulanate (approximate)
value type: solubility
Give the figure together with its unit, number first.

# query: solubility of entry O=C(O)[C@H]1/C(=C/CO)O[C@@H]2CC(=O)N21 [lithium clavulanate]
1.8 mg/mL

---

Assay: Solubility of lithium clavulanate in aqueous lithium chloride
Format: physicochemical
Conditions: 7.5 M aqueous LiCl, about 20° C.; read-out: Solubility in mz/ml of lithium clavulanate (approximate)
value type: solubility (µg/mL)
Give bare numbers, in µg/mL.

# query: solubility of entry O=C(O)[C@H]1/C(=C/CO)O[C@@H]2CC(=O)N21 [lithium clavulanate]
800

---

Assay: Solubility of lithium clavulanate in aqueous lithium chloride
Type: physicochemical
Details: 3.75 M aqueous LiCl, about 20° C.; read-out: Solubility in mz/ml of lithium clavulanate (approximate)
value type: solubility (mg/mL)
One number for each entry, in mg/mL.

# query: solubility of entry O=C(O)[C@H]1/C(=C/CO)O[C@@H]2CC(=O)N21 [lithium clavulanate]
10.2
